- Read-out: xenobiotic metabolism (CYP1A1), CYP1A1 (gene 1543)
- PROCEDURE_TEXT: CLD_CYP1A1_48hr: CellzDirect (CLD) Gene Expression Assay for xenobiotic metabolism (CYP1A1) at 48 hours (AID 2283705)
Records with an inconclusive call do not appear. Active and inactive are the calls of the source. How the source made its calls: active means hit-call score of the fitted dose curve at least 0.9, where 1 is the maximum; inconclusive means response in the unintended direction; inactive means score below 0.9.
Mark one answer only. Choices: 1.0 (active), 0.0 (inactive)

Sample answers from the record:
INSERT INTO results (compound, class_assignment) VALUES
  ('CC(C1CC1)C(O)(Cn1cncn1)c1ccc(Cl)cc1 (stereo unspecified)', 0.0),
  ('FC(F)C(F)(F)OCC(Cn1cncn1)c1ccc(Cl)cc1Cl (stereo unspecified)', 1.0);

Q: What outcome does the record of this test show for C#CC(C)(C)NC(=O)c1cc(Cl)cc(Cl)c1 ?
A: 0.0

Q: What outcome does the record of this test show for CCOP(=S)(OCC)Oc1cc(C)nc(C(C)C)n1 ?
A: 1.0

Q: What outcome does the record of this test show for N#CSCSC#N ?
A: 1.0

Q: What outcome does the record of this test show for COP(=O)(NC(C)=O)SC (stereo unspecified) ?
A: 0.0

Q: What outcome does the record of this test show for Nc1nc(N)nc(NC2CC2)n1 ?
A: 1.0

* * *

- PROCEDURE_TEXT: ATG_E_Box_CIS: Attagene CIS-FACTORIAL HepG2 Assay for human Enhancer Box (E-box) (AID 2282936)
- TEST_SETTINGS: HepG2 E-box cis-reporter transcription, actives raise or lower the signal
Calls of active or inactive are those of the source. The calls were made as follows: active = hit-call score of the fitted dose curve at least 0.9, where 1 is the maximum; inactive = score below 0.9.
Mark one answer only. Choices: 1 (active), 0 (inactive)

INSERT INTO measurements (compound, class_assignment) VALUES
  ('CNc1cnn(-c2cccc(C(F)(F)F)c2)c(=O)c1Cl', 0),
  ('C#CC(C)(C)NC(=O)c1cc(Cl)cc(Cl)c1', 0),
  ('CCc1cccc(C)c1N(C(=O)CCl)C(C)COC (stereo not given)', 0),
  ('CNC(=O)Oc1cccc2c1OC(C)(C)O2', 0),
  ('CC1(C(=O)Nc2ccc(O)c(Cl)c2Cl)CCCCC1', 0),
  ('CC(C1CC1)C(O)(Cn1cncn1)c1ccc(Cl)cc1 (stereo not given)', 0);

Q: What outcome does the record of this test show for CSC1=N[C@@](C)(c2ccccc2)C(=O)N1Nc1ccccc1 ?
A: 0

Q: What outcome does the record of this test show for CC(COc1ccc(Oc2ccccc2)cc1)Oc1ccccn1 (stereo not given) ?
A: 0

Q: What outcome does the record of this test show for CCC(=NOC/C=C/Cl)C1=C(O)CC(C2CCOCC2)CC1=O (stereo not given) ?
A: 0

Q: What outcome does the record of this test show for CCOP(=S)(OCC)OC(Cl)C(Cl)(Cl)Cl (stereo not given) ?
A: 0

Q: What outcome does the record of this test show for CN(C)C(=O)Nc1cccc(C(F)(F)F)c1 ?
A: 0

Q: What outcome does the record of this test show for CCOP(=S)(OCC)Oc1ccc([N+](=O)[O-])cc1 ?
A: 0

Q: What outcome does the record of this test show for CCC(=O)Nc1ccc(Cl)c(Cl)c1 ?
A: 0

* * *

- Read-out: Nuclear factor erythroid 2-related factor 2 (Homo sapiens) (UniProt Q16236)
- Sequence (Q16236 whole entry, looked up): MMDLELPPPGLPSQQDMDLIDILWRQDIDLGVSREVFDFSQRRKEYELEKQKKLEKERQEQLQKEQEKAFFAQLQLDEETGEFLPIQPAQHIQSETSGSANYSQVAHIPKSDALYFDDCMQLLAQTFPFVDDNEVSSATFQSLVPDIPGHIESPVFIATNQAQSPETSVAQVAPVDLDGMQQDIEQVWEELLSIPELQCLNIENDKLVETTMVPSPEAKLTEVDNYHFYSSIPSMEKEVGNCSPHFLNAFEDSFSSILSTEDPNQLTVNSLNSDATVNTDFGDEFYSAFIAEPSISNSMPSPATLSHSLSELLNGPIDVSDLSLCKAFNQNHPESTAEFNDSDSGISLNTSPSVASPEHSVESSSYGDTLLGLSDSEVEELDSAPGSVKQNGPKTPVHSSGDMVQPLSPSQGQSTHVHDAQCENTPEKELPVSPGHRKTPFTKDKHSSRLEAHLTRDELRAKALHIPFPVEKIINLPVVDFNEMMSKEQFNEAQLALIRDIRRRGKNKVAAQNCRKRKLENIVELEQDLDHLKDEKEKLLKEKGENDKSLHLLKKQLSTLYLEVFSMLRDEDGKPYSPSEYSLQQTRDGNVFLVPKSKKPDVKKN
- PROCEDURE_TEXT: LTEA_HepaRG_NFE2L2: Life Technologies and Expression Analysis (LTEA) Assay for Nuclear factor erythroid 2-related factor 2 (NFE2L2) Transcription Factor using HepaRG (AID 2283527)
- TEST_SETTINGS: mRNA level, 48 h; actives raise or lower the signal
Calls of active or inactive are those of the source. Rule for the calls: active = hit-call score of the fitted dose curve at least 0.9, where 1 is the maximum; inactive = score below 0.9.
Mark one answer only. Choices: T for active, F for inactive

Sample answers from the record:
INSERT INTO results (molecule, class_assignment) VALUES
  ('CC(C)N(C(=O)SCC(Cl)=C(Cl)Cl)C(C)C', 'F'),
  ('CCOC(=O)COc1cc(-c2nn(C)c(OC(F)F)c2Cl)c(F)cc1Cl', 'F'),
  ('CON=C(C(=O)OC)c1ccccc1CON=C(C)c1cccc(C(F)(F)F)c1', 'F');

Q: What outcome does the record of this test show for CCOC(=O)CC(SP(=O)(OC)OC)C(=O)OCC (configuration not stated) ?
A: F

Q: What outcome does the record of this test show for CCCCSP(=O)(SCCCC)SCCCC ?
A: T

Q: What outcome does the record of this test show for CN(C)[C@@H]1C(=O)C(C(N)=O)=C(O)[C@@]2(O)C(=O)C3=C(O)c4c(O)cccc4[C@@](C)(O)[C@H]3[C@H](O)[C@@H]12 ?
A: F

Q: What outcome does the record of this test show for Cc1nn(-c2cc(NS(C)(=O)=O)c(Cl)cc2Cl)c(=O)n1C(F)F ?
A: F

* * *

- Read-out: Apolipoprotein A-V (APOA5) gene, APOA5 (gene 116519)
- PROCEDURE_TEXT: LTEA_HepaRG_APOA5: Life Technologies and Expression Analysis (LTEA) Assay for Apolipoprotein A-V (APOA5) gene using HepaRG (AID 2283474)
- TEST_SETTINGS: mRNA level, 48 h; actives raise or lower the signal
Activity calls are given as the source filed them. How the source made its calls: active means hit-call score of the fitted dose curve at least 0.9, where 1 is the maximum; inactive means score below 0.9.
Mark one answer only. Choices: class 1 (active), class 0 (inactive)

Sample answers from the record:
INSERT INTO measurements (compound, class_assignment) VALUES
  ('Nc1nc(N)nc(NC2CC2)n1', 'class 0'),
  ('CCCCOC(=O)[C@@H](C)Oc1ccc(Oc2ccc(C#N)cc2F)cc1', 'class 0'),
  ('CNC(=O)ON=C(SC)C(=O)N(C)C', 'class 0'),
  ('CCCOc1nn(C(=O)NS(=O)(=O)c2ccccc2C(=O)OC)c(=O)n1C', 'class 0'),
  ('C=C(C)[C@H]1Cc2c(ccc3c2O[C@@H]2COc4cc(OC)c(OC)cc4[C@@H]2C3=O)O1', 'class 1'),
  ('CCCCSP(=O)(SCCCC)SCCCC', 'class 0'),
  ('CSc1nc(NC(C)C)nc(NC(C)C)n1', 'class 1'),
  ('Nc1c(Cl)cc([N+](=O)[O-])cc1Cl', 'class 1'),
  ('CCNc1nc(Cl)nc(NC(C)(C)C#N)n1', 'class 0'),
  ('CCOC(=O)CC(SP(=O)(OC)OC)C(=O)OCC (stereo not drawn)', 'class 0');

Q: What outcome does the record of this test show for CCc1cccc(C)c1N(C(=O)CCl)C(C)COC (stereo not drawn) ?
A: class 0

Q: What outcome does the record of this test show for CCOC(=O)COc1cc(-c2nn(C)c(OC(F)F)c2Cl)c(F)cc1Cl ?
A: class 0

Q: What outcome does the record of this test show for CCOP(=S)(Oc1cnc(C(C)(C)C)nc1)OC(C)C (stereo not drawn) ?
A: class 0

* * *

- PROCEDURE_TEXT: BSK_SAg_PBMCCytotoxicity: PBMC Cytotoxicity Assessment in the BioMAP Diversity Plus: SAg Assay (AID 2283093);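 further: PBMC viability measured as Alamar Blue reduction fluorescence at 546/580 nm; fitted both ways against DMSO so a hit may be loss or gain of signal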
- TEST_SETTINGS: primary human HUVEC with PBMC
- Experimental: BSK_SAg is a cell-based, multiplexed-readout assay that uses umbilical vein endothelium and peripheral blood mononuclear cells, a human vascular primary cell co-culture, with measurements taken at 24 hours after chemical dosing in a 96-well plate.BSK_SAg_PBMCCytotoxicity is an assay component measured in the BSK_SAg assay. It measures Alamar blue related to cell death using Alamar Blue Reduction technology.Data from the assay component BSK_SAg_PBMCCytotoxicity was analyzed into 1 assay endpoint. […]
Active and inactive are the calls of the source. The calls were made as follows: active = hit-call score of the fitted dose curve at least 0.9, where 1 is the maximum; inactive = score below 0.9.
Mark one answer only. Choices: yes for active, no for inactive

INSERT INTO results (compound, class_assignment) VALUES
  ('O=C(O)c1cc(Oc2ccc(C(F)(F)F)cc2Cl)ccc1[N+](=O)[O-]', 'no'),
  ('CNc1cnn(-c2cccc(C(F)(F)F)c2)c(=O)c1Cl', 'yes'),
  ('COc1cccc(C(=O)NN(C(=O)c2cc(C)cc(C)c2)C(C)(C)C)c1C', 'no'),
  ('CCOP(=O)(SC(C)CC)N1CCSC1=O (stereo unspecified)', 'no');

Q: What outcome does the record of this test show for CON=C(C(=O)OC)c1ccccc1CON=C(C)c1cccc(C(F)(F)F)c1 ?
A: yes

Q: What outcome does the record of this test show for COP(=O)(OC)OC(Br)C(Cl)(Cl)Br (stereo unspecified) ?
A: yes

Q: What outcome does the record of this test show for CCC(=NOC/C=C/Cl)C1=C(O)CC(C2CCOCC2)CC1=O (stereo unspecified) ?
A: no

Q: What outcome does the record of this test show for CCCOCC(=Nc1ccc(Cl)cc1C(F)(F)F)n1ccnc1 ?
A: yes

Q: What outcome does the record of this test show for CN(C)NC(=O)CCC(=O)O ?
A: no

Q: What outcome does the record of this test show for CSC1=N[C@@](C)(c2ccccc2)C(=O)N1Nc1ccccc1 ?
A: yes

Q: What outcome does the record of this test show for CCOP(=S)(OCC)Oc1cc(C)nc(C(C)C)n1 ?
A: no

Q: What outcome does the record of this test show for CSc1nnc(C(C)(C)C)c(=O)n1N ?
A: no

Q: What outcome does the record of this test show for C#CCC1=C(C)C(OC(=O)C2C(C=C(C)C)C2(C)C)CC1=O (stereo unspecified) ?
A: yes

Q: What outcome does the record of this test show for CN(C)[C@@H]1C(=O)C(C(N)=O)=C(O)[C@@]2(O)C(=O)C3=C(O)c4c(O)cccc4[C@@](C)(O)[C@H]3[C@H](O)[C@@H]12 ?
A: no

Q: What outcome does the record of this test show for Cc1cc(C2CC2)nc(Nc2ccccc2)n1 ?
A: yes

Q: What outcome does the record of this test show for CCOP(=S)(OCC)Oc1ccc([N+](=O)[O-])cc1 ?
A: no

Q: What outcome does the record of this test show for C[N+]1(C)CCCCC1 ?
A: no

Q: What outcome does the record of this test show for Cc1nn(-c2cc(NS(C)(=O)=O)c(Cl)cc2Cl)c(=O)n1C(F)F ?
A: no

Q: What outcome does the record of this test show for CCOP(=S)(OCC)Oc1ccc2c(C)c(Cl)c(=O)oc2c1 ?
A: no

Q: What outcome does the record of this test show for CCOC(=O)COc1cc(-c2nn(C)c(OC(F)F)c2Cl)c(F)cc1Cl ?
A: no
